So I've got a bunch of binders here, and I need their IC50 (nM) Latent + mTLL2 values.
Target: recombinant human latent myostatin (human, UniProt O14793 24-375, biotinylated (in the Octet pH assay only))
Test: cell-based or functional assay
Numeric only. Scale: nM

[Q] Would you mind telling me what IC50 (nM) Latent + mTLL2 value was observed for Ab124 (antibody, human IgG4 S228P, kappa, V domains shown) VH: QVQLQESGPGLVKPSQTLSLTCTVSGGSISSSPYSWSWIRQPPGKGLEWIGYVDLAGSTDYNPSLKSRVTMSVDTSKNQFSLKVNSVTAADTAVYYCARALSSRSSEWLLDQYTMDVWGQGTTVTVSS VL: EIVMTQSPATLSLSPGERATLSCRASQSIGINLAWYQQKPGQAPRLLIYGVSNRATGIPARFSGSGSGTDFTLTISSLEPEDFAVYYCQQYGTARLTFGGGTKVEIKR ?
[A] 1.43

[Q] Would you mind telling me what IC50 (nM) Latent + mTLL2 value was observed for Ab128 (antibody, human IgG4 S228P, kappa, V domains shown) VH: EVQLVESGGGLVQPGGSLRLSCTASGFTLSSYSMDWVRQAPGKGLEWVSYITGSGDTTYYADSVKGRFTISRDNAKNTLYLQMNSLRAEDTAVYYCARGFGWISGWAEDYFDYWGQGTLVTVSS VL: DIQMTQSPSSLSASVGDRVTITCQASQSVYSYLNWYQQKPGKAPKLLIYGASRLEGGVPSRFSGSGSGTDFTFTISSLQPEDIATYYCQQHSTDQRTFGGGTKVEIKR ?
[A] 1.03

[Q] Would you mind telling me what IC50 (nM) Latent + mTLL2 value was observed for Ab109 (antibody, human IgG4 S228P, kappa, V domains shown, human IgG4 in the EM experiment; also called Ab109 Human IgG4) VH: EVQLVESGGGLVQPGGSLRLSCAASGFTFSSYGMSWVRQAPGKGLELVASFTGSGGTYYPDSVKGRFTISRDNAKNSLYLQMNSLRAEDTAVYYCARDLLIRFLEWSHYYGMDVWGQGTTVTVSS VL: DIVMTQSPLSLPVTPGEPASISCRSSQSLLHSSGHNFLHWYLQKPGQSPQLLIYEVSNRVSGVPDRFSGSGSGTDFTLKISRVEAEDVGVYYCMQQTQYPPTFGGGTKVEIKR ?
[A] 0.145
